biological target: T1, Cynomolgus monkey CDCP1 (Macaca fascicularis, UniProt A0A2K5VLA8); test: Octet BLI, Ab on Protein A sensor, recombinant CDCP1 analyte;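 also: antibody captured for 120 s on the sensor, followed by 300 s association with CDCP1 and a 300–600 s dissociation phase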
T1 construct: recombinant ectodomain from CHO cells; construct not given; also called cyCDCP1; BBP468
ASSAY READOUT: pKd
Kindly note that pKd refers to -log10 of the concentration in mol/L and answer with the value alone.

Consider the worked cases shown below.
12C2 (antibody, V domains shown) VH: QEQLVESGGGVVQPGRSLRLSCVTSGFTFSSYGMHWVRQAPGKGLEWVAVIWYDGTNKYYADTVKGRFTISRDNSKNTLYLQMNSLRAEDTGVYYCAREGCDTISCPYYYYGMDVWGQGTTITVSS VL: DILMTQSPSSLSASVGDRVTITCRASQGINYYLAWYQQKPGKVPKLLIYTASTLQSGVPSRFSGSGSGTDFTLTISSLQPEDVATYFCQKYNSAPFTFGPGTKLEIK    8.10
03C05 (antibody, V domains shown, also called 3C5) VH: EVQVLESGGGLVQPGGSLRLSCAASGFTFSSYVMSWVRQAPGKGLEWVSGISGSGGSTHYADSVKGRFTISRDNSKNTLYLQMNSLRAEDTALYYCAQQWPQGYWGQGTLVTVSS VL: DIQMTQSPSSLSASVGDRVTITCRASQDISIYLAWFQQKPGKVPKVLIYAASTLQSGVPSRFSGSGTGTDFTLTISSLQPEDVATYFCQKYNSAPFTFGPGTKLEIK    7.10
41A9 (antibody, human IgG1, V domains shown, also called 41A09; human antibody 41A9) VH: QVQLQQWGAGLLKPSETLSLTCAVYGGSFSDYYWSWIRQPPGKGLEWIGEINHSGSTNYNPSLKSRVTISVDTSKNQFSLKLSSVTAADTAVYYCARDYDVLTGHFYYYYGMDVWGQGTTVTVSS VL: EIVLTQSPATLSLSPGERATLSCRASQSVRRYLAWYQQKPGQAPRLLIYDASNRATGIPARFSGSGSGTDFTLTISSLEPEDFAVYYCQQRNNWPLTFGGGTKLEIK    7.89

pKd reading for 47G7 (antibody, human IgG1, V domains shown, also called human antibody 47G7) VH: EVQLVESGGGLVQPGGSLRLSCAASGFTFSSYWMSWVRQAPGKGLEWVANIKQDGSEKDYVDSVKGRFTISRDNAKNSLYLQMNSLRVEDTAVYYCAREGGSSGWTFDYWGQGTLVTVSS VL: DIVMTQSPLSLPVTPGEPASISCRSSQSLLHSSGHNFLDWYLQKPGQSPQLLIYLGSNRASGVPDRFSGSGSGTDFTLKISRVEAEDVGVYYCMQALQTPPTFGQGTKLEIK : 6.30
